Recorded growth, one value per entry.
Tested on: NCI-H23 lung
Assay: NCI-60 one-dose screen, 48 h (100 = growth as untreated, 0 = no growth, -100 = all killed)
Details: 10 µM unless noted
This is part of a sample that, as a whole, favours compounds with a hit. Of some 83,000 tested, about 20% had one in any assay.
quantity: growth (%)

| molecule | units | numeric-readout |
| --- | --- | --- |
| COC(=O)[C@@H](NC(=O)[C@@H](OC)[C@@H]1Cc2cc3cc(OC4CC(OC5CC(O)C(O)C(C)O5)C(O)C(C)O4)c(C)c(O)c3c(O)c2C(=O)[C@H]1OC1CC(OC2CC(OC3CC(C)(O)C(O)C(C)O3)C(O)C(C)O2)C(O)C(C)O1)C(C)C (some centres not stated) | % | -6.89 |
| C=CC(=O)Nc1cccc(Oc2nc(Nc3ccc(N4CCN(C)CC4)cc3)nc3ccsc23)c1 | % | 32.2 |
| N#Cc1c(C(F)(F)F)cc(Nc2ccc3nc(NCCN4CCCC4)oc3c2)n2c1nc1ccccc12 | % | 81 |
| Cc1ccc(NC(=O)c2ccc(CN3CC[C@H](N(C)C)C3)c(C(F)(F)F)c2)cc1Nc1nccc(-c2cncnc2)n1 | % | 13.2 |
| CC[C@H](CO)Nc1nc(NCc2ccccc2)c2ncn(C(C)C)c2n1 | % | 63.5 |
| CCCCn1c(C)nc2cc(Nc3nc(N4CCCCC4)nc4nc[nH]c34)ccc21 | % | 51.4 |
| COc1cnc2c(c1)C(=O)c1c-2n(CCCN2CCC(O)CC2)c(=O)c2cc(Cl)ccc12 | % | 11.8 |
| CC(C)CC(=O)Nc1n[nH]c2c1CN(C(=O)C1CCN(C)CC1)C2(C)C | % | 0.542 |
| CO/C=C/C(=O)c1cc2cnc3c(=N)cc(NC(=O)C(C)C)c([nH]1)c23 | % | -11.9 |
| CC(C)c1cc(CNc2nc(Nc3cc(C4CC4)[nH]n3)cc(N3CCN(C)CC3)n2)on1 | % | -25 |
| O=C1NC(=O)C(c2cnc3ccccn23)=C1c1cn2c3c(cc(F)cc13)CN(C(=O)N1CCCCC1)CC2 | % | 82.1 |
| Cc1cc([C@@H](C)Nc2ccccc2C(=O)O)c2nc(N3CCOCC3)cc(=O)n2c1 | % | 54.8 |
| O=c1sn(-c2cccc3ccccc23)c(=O)n1Cc1ccccc1 | % | 100 |
| COC(=O)CC[C@@H](C)[C@H]1CC[C@H]2C3CC[C@@H]4C[C@@H]5CC[C@]4(C)[C@@]3(O5)[C@H](Br)[C@@H](Br)[C@]12C (some centres not stated) | % | 81.1 |
| CCN(CC)CCNC(=O)c1c(C)[nH]c(/C=C2\C(=O)Nc3ccc(F)cc32)c1C | % | 21.4 |
| O=C1OCC2=C1C(c1cccc(F)c1)c1cc3c(cc1N2CCO)OCCO3 (configuration not stated) | % | 25.4 |
| CN1CCN(c2nc(NCCNc3ccnc4cc(Cl)ccc34)c3ccccc3n2)CC1 | % | 44.9 |
